Experiment: Oral bioavailability in Beagle dog at 0.3 mg/kg by HPLC method
Type: ADME, organism-based, Canis lupus familiaris
Conditions: in vivo
measured property: bioavailability (%)
Number only, in %; omit the unit.

Request: Consider the compound shown here: COc1ncc(-c2ccc3ncnc(-c4cccc(C(=O)N5CCN(C(C)=O)CC5)c4)c3c2)cc1C#N What is its recorded bioavailability?
Response: 42

----------
Assay: Octanol/water partition coefficient, log P of the compound by high-throughput assay
Type: physicochemical
measured property: logP
Would you mind answering with just the numeric figure?

Examples from the recorded data:
mol smiles: COc1ncc(-c2ccc3ncnc(-c4cccc(C(=O)N5CCN(C(C)=O)CC5)c4)c3c2)cc1C(F)(F)F
logP: 3.1

mol smiles: COc1ncc(-c2ccc3ncnc(-c4cccc(C(=O)N5CCN(C(C)=O)CC5)c4)c3c2)cc1C#N
logP: 2.8

mol smiles: CC(=O)N1CCN(C(=O)c2cccc(-c3ncnc4ccc(-c5cnc6ccccc6c5)cc34)c2)CC1
logP: 2.8

mol smiles: COc1ccc(-c2ccc3ncnc(-c4cccc(C(=O)N5CCN(C)CC5)c4)c3c2)cn1
logP: 2.2

mol smiles: COc1ccc(-c2ccc3ncnc(-c4cccc(C(=O)N5CCN(C(C)=O)CC5)c4)c3c2)cc1OC
logP: 1.9

Request: Quick check: logP of COc1ccc(-c2ccc3ncnc(-c4cccc(C(=O)N5CCN(C)CC5)c4)c3c2)cc1OC ?
Response: 2.8

Request: Give its logP value. Item: COc1ncc(-c2ccc3ncnc(-c4cccc(C(=O)N5CCN(C)CC5)c4)c3c2)cc1C#N
Response: 1.9

Request: Which logP value belongs to COc1ccc(-c2ccc3ncnc(-c4cncc(C(=O)N5CCN(C)CC5)c4)c3c2)cn1 ?
Response: 1.9

Request: Any idea what its logP is? The compound is COc1ccc(-c2ccc3ncnc(-c4cccc(C(=O)N5CCN(C(C)=O)CC5)c4)c3c2)cn1
Response: 2.7

Request: Which logP value is on record for CN1CCN(C(=O)c2cccc(-c3ncnc4ccc(-c5cnc6ccccc6c5)cc34)c2)CC1 ?
Response: 3.1

Request: Name the reported logP value associated with the compound COc1ncc(-c2ccc3ncnc(-c4cccc(C(=O)N5CCN(C)CC5)c4)c3c2)cc1C(F)(F)F
Response: 3.9

----------
Assay: Tmax in Lewis rat blood at 30 mg/kg, po administered as single dose by LC-MS analysis
Assay type: ADME, organism-based
Settings: whole blood
measured property: Tmax
Show the value, then the unit it is measured in.

Request: # Tmax lookup, item COc1ncc(-c2ccc3ncnc(-c4cccc(C(=O)N5CCN(C(C)=O)CC5)c4)c3c2)cc1C#N
Response: 2 h

----------
Test: Volume of distribution at steady state in Beagle dog at 0.1 mg/kg, iv by HPLC method
Format: ADME, organism-based, Canis lupus familiaris
Conditions: in vivo, read-out: Vdss
measured property: Vd (L/kg)
Give just the number in L/kg; leave the unit off.

Request: Sample COc1ncc(-c2ccc3ncnc(-c4cccc(C(=O)N5CCN(C(C)=O)CC5)c4)c3c2)cc1C#N — what was its Vd?
Response: 1

----------
Assay: Drug uptake in Lewis rat blood at 30 mg/kg, po administered as single dose by LC-MS analysis
Type: ADME, organism-based
Conditions: in vivo, read-out: Drug uptake
measured property: concentration (µM)
Write the value in µM as a bare number.

Request: I would be grateful if you could share the reported concentration for COc1ncc(-c2ccc3ncnc(-c4cccc(C(=O)N5CCN(C(C)=O)CC5)c4)c3c2)cc1C#N .
Response: 5

The measurements presented in this section are drawn from ChEMBL document CHEMBL4428080.
